- method: Pharmacokinetics in mice, plasma and lung
- Assay type: in vivo
- measurementSetup: female, mouse, ip, 10 mg/kg intraperitoneal, plasma
measuredQuantity: AUC

[ask] Which value of AUC has been reported for Nc1ccccc1C(=O)NS(=O)(=O)OC[C@H]1O[C@@H](n2cnc3c(N)ncnc32)[C@H](O)[C@@H]1O in the records?
[reply] 5000 ng·h/mL

----------
- testedTarget: P. aeruginosa PqsA (Pseudomonas aeruginosa, UniProt Q9I4X3)
- Sequence (Q9I4X3 whole entry): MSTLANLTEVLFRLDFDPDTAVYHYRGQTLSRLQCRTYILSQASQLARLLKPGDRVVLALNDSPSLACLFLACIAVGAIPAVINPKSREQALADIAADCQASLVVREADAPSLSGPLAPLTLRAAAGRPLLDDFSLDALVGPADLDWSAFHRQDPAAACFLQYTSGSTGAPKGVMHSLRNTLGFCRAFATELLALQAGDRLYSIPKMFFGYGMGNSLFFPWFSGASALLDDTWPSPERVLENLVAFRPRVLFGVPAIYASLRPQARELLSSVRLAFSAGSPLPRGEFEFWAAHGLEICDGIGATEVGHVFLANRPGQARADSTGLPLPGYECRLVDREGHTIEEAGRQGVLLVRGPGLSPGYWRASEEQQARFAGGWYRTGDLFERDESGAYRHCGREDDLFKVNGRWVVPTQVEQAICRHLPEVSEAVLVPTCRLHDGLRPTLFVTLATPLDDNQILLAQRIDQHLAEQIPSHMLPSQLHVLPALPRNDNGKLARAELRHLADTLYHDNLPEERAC
- method: PqsA inhibition, spectrophotometric assay with recombinant PqsA (anthranilyl-CoA formation at 365 nm)
- measurementSetup: IC50 for inhibition of P. aeruginosa PqsA
measuredQuantity: IC50 (µM)
I only need the number, in µM, no unit after it.

[ask] Find the recorded IC50 belonging to Nc1c(Cl)cccc1C(=O)NS(=O)(=O)OC[C@H]1O[C@@H](n2cnc3c(N)ncnc32)[C@H](O)[C@@H]1O [DST-Pqs13] and report it.
[reply] 1.23

[ask] Consider the compound shown here: NCc1ccccc1Nc1nc(N)c2ncn([C@@H]3O[C@H](COS(=O)(=O)NC(=O)c4ccccc4N)[C@@H](O)[C@H]3O)c2n1 [DST-Pqs27] What is its recorded IC50?
[reply] 5.24

[ask] Need IC50, item Nc1ccccc1C(=O)NS(=O)(=O)OC[C@H]1O[C@@H](n2cnc3c(N)nc(-c4ccccc4)nc32)[C@H](O)[C@@H]1O [JI-C-2013-454]
[reply] 25

[ask] Field request: IC50 | item: Nc1cc(F)ccc1C(=O)NS(=O)(=O)OC[C@H]1O[C@@H](n2cnc3c(N)ncnc32)[C@H](O)[C@@H]1O [DST-Pqs11]
[reply] 0.107

[ask] Return reported IC50; argument: Nc1ccc(Cl)cc1C(=O)NS(=O)(=O)OC[C@H]1O[C@@H](n2cnc3c(N)ncnc32)[C@H](O)[C@@H]1O [DST-Pqs15]
[reply] 1.53

[ask] Query (compound): Nc1ccccc1C(=O)NS(=O)(=O)OC[C@@H]1CC[C@H](n2cnc3c(N)ncnc32)O1 [JI-C-2014-025] ; field requested: IC50
[reply] 5

[ask] Please give the measured IC50 for this compound: Nc1ccccc1C(=O)NS(=O)(=O)OC[C@H]1O[C@@H](n2cnc3c(N)nc(Nc4ccccc4)nc32)[C@H](O)[C@@H]1O [JI-C-2013-451]
[reply] 2.07

[ask] Dear colleague, I am looking for the recorded IC50 of the following compound: Nc1cccc(Cl)c1C(=O)NS(=O)(=O)OC[C@H]1O[C@@H](n2cnc3c(N)ncnc32)[C@H](O)[C@@H]1O [DST-Pqs16]
[reply] 0.552

[ask] Data request, read-out IC50, for Nc1ccccc1C(=O)NS(=O)(=O)OC[C@H]1O[C@@H](n2cnc3c(N)nc(C#Cc4ccccc4)nc32)[C@H](O)[C@@H]1O [JI-C-2013-456]
[reply] 1.46

[ask] I have this compound here, Nc1cccc(F)c1C(=O)NS(=O)(=O)OC[C@H]1O[C@@H](n2cnc3c(N)ncnc32)[C@H](O)[C@@H]1O [DST-Pqs12] , and I need its recorded IC50.
[reply] 0.516

[ask] Need IC50, item CNc1ncnc2c1ncn2[C@@H]1O[C@H](COS(=O)(=O)NC(=O)c2ccccc2N)[C@@H](O)[C@H]1O [DST-Pqs19]
[reply] 39.2

[ask] What value of measured IC50 is listed for Nc1ccccc1C(=O)NS(=O)(=O)OC[C@H]1O[C@@H](n2cnc3c(N)ncnc32)[C@H](O)[C@@H]1O [DST-Pqs1] ?
[reply] 0.309

[ask] Record request: IC50 value, item Nc1cc(Cl)ccc1C(=O)NS(=O)(=O)OC[C@H]1O[C@@H](n2cnc3c(N)ncnc32)[C@H](O)[C@@H]1O [DST-Pqs14]
[reply] 0.828
